Where these numbers come from: PubChem BioAssay (NCATS)

# Target Or Test System: Thyroid hormone receptor beta (Homo sapiens) (UniProt P10828)
# Sequence (P10828 whole entry, looked up): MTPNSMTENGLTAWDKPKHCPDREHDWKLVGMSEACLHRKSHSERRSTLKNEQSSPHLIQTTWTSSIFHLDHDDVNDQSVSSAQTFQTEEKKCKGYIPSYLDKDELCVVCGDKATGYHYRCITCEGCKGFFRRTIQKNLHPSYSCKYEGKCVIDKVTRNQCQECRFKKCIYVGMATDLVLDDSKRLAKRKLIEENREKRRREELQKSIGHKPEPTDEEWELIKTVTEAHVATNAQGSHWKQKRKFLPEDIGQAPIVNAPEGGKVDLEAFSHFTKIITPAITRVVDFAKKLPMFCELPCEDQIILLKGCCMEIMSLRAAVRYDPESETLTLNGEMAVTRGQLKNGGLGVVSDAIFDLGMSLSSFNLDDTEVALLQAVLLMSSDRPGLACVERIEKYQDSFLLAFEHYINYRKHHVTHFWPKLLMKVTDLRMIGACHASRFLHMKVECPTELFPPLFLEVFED
# Assay Text: qHTS assay for small molecule antagonists of thyroid hormone receptor beta signaling (AID 588547);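 note: cells stimulated with 0.4 nM T3 agonist during compound exposure; series mostly up to about 77 µM; % is set by controls: 0 for no effect and ±100 for the full control effect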
# Recorded Conditions: TR-UAS-bla HEK293, beta-lactamase ratio, antagonist mode, 18 h
Records with an inconclusive call do not appear.
For each record, write down the corresponding activity change % (negative = inhibition).
One number for each entry, in %.

What measured activity change % (negative = inhibition) is associated with `[O]=[Cr](=[O])([OH])[O][Cr](=[O])(=[O])[OH]` on Thyroid hormone receptor beta (Homo sapiens) (UniProt P10828)? -20.9

Param item: `O=[N+]([O-])C(Br)(CO)CO` 5.27

Param item: `O=C1C[C@@H]2OCC=C3CN4CC[C@]56c7ccccc7N1[C@H]5[C@H]2[C@H]3C[C@H]46` 0.757

Switching to the query record.
What measured activity change % (negative = inhibition) is associated with COc1ccc2c(c1OC)C(=O)OC2C1c2cc3c(cc2CCN1C)OCO3 (centres undefined) on Thyroid hormone receptor beta (Homo sapiens) (UniProt P10828)? -14.3
